B1: TPR t1 (parent)
chain: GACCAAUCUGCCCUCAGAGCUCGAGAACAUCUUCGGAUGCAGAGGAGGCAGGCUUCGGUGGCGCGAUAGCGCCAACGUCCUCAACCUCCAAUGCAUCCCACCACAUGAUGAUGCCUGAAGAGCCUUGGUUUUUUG

# Variants of: B1
# assay name: polymerase ribozyme fitness, log enrichment relative to wild type (log ratio); higher = more active; in vitro selection for triplet polymerase activity
Record rule met whenever polymerase ribozyme fitness (log ratio) is at -2 or higher; record rule not met when lower.

Is reported polymerase ribozyme fitness (log ratio) greater than or equal to -2 here: C4G C86A
rule not met

Is reported polymerase ribozyme fitness (log ratio) greater than or equal to -2 here: C4U C56A
rule met

Is reported polymerase ribozyme fitness (log ratio) greater than or equal to -2 here: C8G C15U G19A U125A
rule not met

Is reported polymerase ribozyme fitness (log ratio) greater than or equal to -2 here: C40U A46U G47A C53G A66C G117C
rule not met

Is reported polymerase ribozyme fitness (log ratio) greater than or equal to -2 here: G47U A50U U54A
rule not met
